Biological target: T1, Activin B (UniProt P09529 293-407)
T1 sequence (looked up): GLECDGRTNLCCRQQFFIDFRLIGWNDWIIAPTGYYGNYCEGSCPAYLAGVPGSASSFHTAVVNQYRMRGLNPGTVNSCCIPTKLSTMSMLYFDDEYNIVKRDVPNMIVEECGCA
Test: cell-based or functional assay
Items are presented alongside their recorded IC50, SBE-luciferase reporter in HEK293 cells.
Express the result in µg/mL but write the number alone.

Observe how each entry below is paired with its result.
Q) I am curious: what IC50, SBE-luciferase reporter in HEK293 cells value has been reported for ActRIIB-A7 (SEQ ID NO: 125) chimera-Fc protein (Fc fusion, Tested as chimera-Fc protein; not shown: linker (if any) and Fc domain) GRGEAETRECIYYNANWELERTNQSGLERCEGEQDKRLHCYASWRNSSGTIELVKKGCWLDDFNCYDRQECVATEENPQVYFCCCEGNMCNERFTHLPEAGGPEVTYEPPPTAPT ?
A) 0.073

Q) I'd like to know its IC50, SBE-luciferase reporter in HEK293 cells. The binder in question is ActRIIB-A6 (SEQ ID NO: 124) chimera-Fc protein (Fc fusion, Tested as chimera-Fc protein; not shown: linker (if any) and Fc domain) GRGEAETRECIYYNANWELERTNQSGLERCEGEQDKRLHCYASWRNSSGTIELVKKGCWLDDFNCYDRQECVATKDSPEVYFCCCEGNFCNERFTHLPEAGGPEVTYEPPPTAPT
A) 0.14

Q) // returns reported IC50, SBE-luciferase reporter in HEK293 cells for input ActRIIB-B1B2B3B4 (SEQ ID NO: 119) chimera-Fc protein (Fc fusion, Tested as chimera-Fc protein; not shown: linker (if any) and Fc domain) GRGEAETRECLFFNANWELERTNQTGVEPCEGEQDKRRHCFATWKNISGSIEIVKQGCWLDDFNCYDRQECVATEENPQVYFCCCEGNFCNERFTHLPEAGGPEVTYEPPPTAPT
A) 0.086

Others:
Q) What value of measured IC50, SBE-luciferase reporter in HEK293 cells is listed for ActRIIB-B3 (SEQ ID NO: 112) chimera-Fc protein (Fc fusion, Tested as chimera-Fc protein; not shown: linker (if any) and Fc domain) GRGEAETRECIYYNANWELERTNQSGLERCEGEQDKRRHCFATWKNISGTIELVKKGCWLDDFNCYDRQECVATEENPQVYFCCCEGNFCNERFTHLPEAGGPEVTYEPPPTAPT ?
A) 0.096

Q) // lookup IC50, SBE-luciferase reporter in HEK293 cells for ActRIIB-B2 (SEQ ID NO: 111) chimera-Fc protein (Fc fusion, Tested as chimera-Fc protein; not shown: linker (if any) and Fc domain) GRGEAETRECIYYNANWELERTNQTGVEPCEGEQDKRLHCYASWRNSSGTIELVKKGCWLDDFNCYDRQECVATEENPQVYFCCCEGNFCNERFTHLPEAGGPEVTYEPPPTAPT
A) 0.17

Q) Fill in: IC50, SBE-luciferase reporter in HEK293 cells of ActRIIB-A8 (SEQ ID NO: 126) chimera-Fc protein (Fc fusion, Tested as chimera-Fc protein; not shown: linker (if any) and Fc domain) GRGEAETRECIYYNANWELERTNQSGLERCEGEQDKRLHCYASWRNSSGTIELVKKGCWLDDFNCYDRQECVATEENPQVYFCCCEGNFCNERFTHLPEMEVTQPTS is ___
A) 0.052

Q) Please give the measured IC50, SBE-luciferase reporter in HEK293 cells for this binder: ActRIIB-A3 (SEQ ID NO: 122) chimera-Fc protein (Fc fusion, Tested as chimera-Fc protein; not shown: linker (if any) and Fc domain) GRGEAETRECIYYNANWELERTNQSGLERCYGDKDKRLHCYASWRNSSGTIELVKKGCWLDDFNCYDRQECVATEENPQVYFCCCEGNFCNERFTHLPEAGGPEVTYEPPPTAPT
A) 0.075

Q) GET /values?readout=IC50, SBE-luciferase reporter in HEK293 cells&item= ActRIIB-A2 (SEQ ID NO: 121) chimera-Fc protein (Fc fusion, Tested as chimera-Fc protein; not shown: linker (if any) and Fc domain) GRGEAETRECIYYNANWEKDRTNQSGLERCEGEQDKRLHCYASWRNSSGTIELVKKGCWLDDFNCYDRQECVATEENPQVYFCCCEGNFCNERFTHLPEAGGPEVTYEPPPTAPT
A) 0.13
